B1: library; the commonest letter at each place (parent)
chain: MKPVTLYDVAEYAGVSYQTVSRVVNQASHVSAKTREKVEAAMAELNYIPNRVAQQLAGKQSLLIGVATSSLALHAPSQIVAAIKSRADQLGASVVVSMVERSGVEACKAAVHNLLAQRVSGLIINYPLDDQDAIAVEAACTNVPALFLDVSDQTPINSIIFSHEDGTRLGVEHLVALGHQQIALLAGPLSSVSARLRLAGWHKYLTRNQIQPIAEREGDWSAMSGFQQTMQMLNEGIVPTAMLVANDQMALGAMRAITESGLRVGADISVVGYDDTEDSSCYIPPLTTIKQDFRLLGQTSVDRLLQLSQGQAVKGNQLLPVSLVKRKTTLAPNTQTASPRALADSLMQLARQVSRLESGQ

- Variants of: B1
- Measurement notes: saturating output G-infinity (YFP) (log10 MEF); higher = higher reporter expression at saturating IPTG
- Details: with IPTG
Property label: saturating output G-infinity (log10)

I160F L185F = 4.19
E11K A27G K37N H112L A139V S191P = 4.43
V96E T154I S158R V238D M254I V264I = 3.19
E39D N208D A222V = 4.48
I64V V95M Q131R T141A D152E N208I A222T L295M K327N = 4.49
D88N = 3.48
Q55K G121V N333I = 4.39
L56M = 4.55
S70R V271M = 4.27
P76Q V150A N157D Q181H I210L M254T I283N = 3.93
S120G M223L F226L L319F R355L = 4.41
S69T I83M = 4.27
S70R V136E = 3.81
S69F = 4.38
V301M = 4.47
S69T I83M S97T = 4.41
S190C = 4.45
D88G = 3.85
S70R Q231R = 4.25
E100V T299I = 4.46
A72V K84N I210F M254T T336S = 4.07
A194V = 4.32
S70R F161V = 4.39
S69F V95A A110E I159S = 4.23
Y273H D278G Q335L E357G = 4.07
V80L V96E T154I S158R V238D M254I V264I = 3.07
S70R A87P V301M E357G = 3.67
A138T A214V V244L = 4.43
I160N Q231H I289V D302E = 4.28
L90Q L198M E235D T336S = 4.42
N113D D132N T154R M242I V313A K314N R340S = 4.23
V24L V52M A72T A214V I268V K325Q P332H A337V = 4.23
V80L S279T = 3.94
A87P V301M E357G = 3.62
S97T = 4.57
S70R V150A S190T F226L = 4.22
V80L L169P = 3.7
E36V Q89H D132G A138D E277A Q306E S322T = 4.36
I83F = 4.43
A109E D165V G166A R255C E259G = 4.42
R51C = 4.49
A27T A87T S102G N316I L330P Q352R = 4.52
Q231R = 4.38
K203N D278V S280L I283V = 4.4
S70R V96E T154I S158R V238D M254I V264I = 3.4
I83M V136E = 3.79
V96M = 4.17
L296R = 4.38
V136E F161V = 4.23
L56M Q317L = 4.49
V95M A337T = 4.23
A72V A110V N142D S322L = 4.44
Q181H = 4.41
V80L I83M = 3.72
L56M D130E = 4.51
L90Q R101G C140G L169Q K290I T329S = 4.48
N208Y = 4.4
V94L V99I V104I L307F = 4.2
V136E S279T = 4.03
D130E = 4.47
S69T = 4.41
V95M Q335R Q360R = 4.17
F161S = 4.46
T68I = 4.42
S70R S190C = 4.28
I83F G200C = 4.47
R51H = 4.63
V136E L169P = 1.85
H74Y A92V H112L S151T D165N H179Q = 3.26
D88Y A241V N246S L305M L319F P339T A341T L346S = 2.91
V80L S97T = 4.03
S77P E105V = 4.2
S93N V99E S102R L198Q S260F A337S = 4.44
M42I = 4.15
Q291L = 4.41
